- Tested on: Influenza A virus
- measurementDescription: Antiviral activity against amantadine-sensitive Influenza A virus A/HK/68 (H3N2) expressing wild type M2 ion channel infected in MDCK cells assessed as protection against virus induced cytopathic effect after 48 hrs by microscopic analysis
- Type: functional, organism-based, Influenza A virus (A/Hong Kong/1/1968(H3N2))
- experimentalConditions: Influenza A virus, MDCK, 48 h; read-out: IC50
Checkbox rule: IC50 lower than 4 µM = Y; IC50 not lower than 4 µM = N.

>  <smilesCode>
Cc1nc(C2CC2)[nH]c1CN[C@@H]1C[C@@H]2C[C@H]([C@H]1C)C2(C)C

>  <target>
Influenza A virus

>  <assignedClass>
N

$$$$
>  <smilesCode>
CC(C)Cc1ncc(CN[C@@H]2C[C@@H]3C[C@H]([C@H]2C)C3(C)C)[nH]1

>  <target>
Influenza A virus

>  <assignedClass>
N

$$$$
>  <smilesCode>
C[C@@H]1[C@H]2C[C@@H](C[C@H]1NCc1[nH]cnc1C1CC1)C2(C)C

>  <target>
Influenza A virus

>  <assignedClass>
Y

$$$$
>  <smilesCode>
CCCc1nc[nH]c1CN[C@@H]1C[C@@H]2C[C@H]([C@H]1C)C2(C)C

>  <target>
Influenza A virus

>  <assignedClass>
Y

$$$$
>  <smilesCode>
CCc1nc[nH]c1CN[C@@H]1C[C@@H]2C[C@H]([C@H]1C)C2(C)C

>  <target>
Influenza A virus

>  <assignedClass>
N

$$$$
>  <smilesCode>
CCCc1nc(C2CC2)[nH]c1CN[C@@H]1C[C@@H]2C[C@H]([C@H]1C)C2(C)C

>  <target>
Influenza A virus

>  <assignedClass>
N

$$$$
>  <smilesCode>
C[C@@H]1[C@H]2C[C@@H](C[C@H]1NCc1[nH]cnc1C(C)(C)C)C2(C)C

>  <target>
Influenza A virus

>  <assignedClass>
N

$$$$
